All figures here come from patent US20250270304A1.

- Target: T1, Latent Activin A (human, UniProt P08476 21-426, limits assumed)
- T1 construct: also called INHBA latent
- T1 sequence: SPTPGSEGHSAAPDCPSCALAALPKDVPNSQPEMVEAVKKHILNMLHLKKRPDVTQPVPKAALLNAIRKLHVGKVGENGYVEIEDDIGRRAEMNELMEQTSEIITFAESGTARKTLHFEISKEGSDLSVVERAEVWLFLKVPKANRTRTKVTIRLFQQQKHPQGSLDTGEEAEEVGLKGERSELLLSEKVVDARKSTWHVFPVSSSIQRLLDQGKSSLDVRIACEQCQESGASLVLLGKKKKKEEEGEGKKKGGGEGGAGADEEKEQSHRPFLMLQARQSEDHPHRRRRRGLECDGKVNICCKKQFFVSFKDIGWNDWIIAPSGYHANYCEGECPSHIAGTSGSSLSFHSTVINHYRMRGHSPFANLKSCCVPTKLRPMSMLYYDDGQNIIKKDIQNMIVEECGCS
- Assay Comment: ELISA, coated antigen, OD450
Measured Endpoint: fold-change of OD 450 over negative control (BSA) (fold)

# Binder, Measurement Units, Measured Number
data = [
    ("AB353 (antibody, IgG1, V domains shown) VH: QVQLQESGPGLVKPSQTLSLTCTVSGLSLSNAKMGVNWIRQPPGKGLEWIGYVSTTGTTDYNPSLKSRVTMSVDTSKNQFSLKVNSVTAADTAVYYCARAGYPDVWGKGTTVTVSS VL: EIVMTQSPATLSLSPGERATLSCRASQNVYTNLAWYQQKPGQAPRLLIYGASARASGIPARFSGSGSGTDFTLTISSLEPEDFAVYYCLQYGSSPPLFGGGTKVEIK", "fold", 4.4),
    ("AB346 (antibody, IgG1, V domains shown) VH: QVQLQESGPGLVKPSQTLSLTCTVSGFPLSTSRMGVNWIRQPPGKGLEWIGYINPSGATDYNPSLKSRVTMSVDTSKNQFSLKVNSVTAADTAVYYCARAGYPDVWGKGTTVTVSS VL: EIVMTQSPATLSLSPGERATLSCRASRSVSSDLAWYQQKPGQAPRLLIYDVSTRATGIPARFSGSGSGTDFTLTISSLEPEDFAVYYCQQYGSSLPPTFGGGTKVEIK", "fold", 13.8),
]
